Known activity at 1 µM of a selection of molecules
- System: SU-DHL-10 (GCB DLBCL)
- assay_remarks: MTT cell proliferation, lymphoma
- Type: cell-based
- experimental_parameters: Homo sapiens, SU-DHL10; 1 μM, 72 h, of untreated cells; read-out: Proliferating cells (%)
Form entry: value (%) — number only.

[[record]]
smiles_string = "Cn1ccc2c1-c1oncc1CCC2"
target_desc = "SU-DHL-10 (GCB DLBCL)"
unit_info = "%"
observed_value = 70.2

[[record]]
smiles_string = "COc1ccccc1Cn1ccc2c1-c1oncc1CCC2"
target_desc = "SU-DHL-10 (GCB DLBCL)"
unit_info = "%"
observed_value = 141

[[record]]
smiles_string = "COC(=O)c1cc2c(n1Cc1ccccc1)-c1oncc1CCC2"
target_desc = "SU-DHL-10 (GCB DLBCL)"
unit_info = "%"
observed_value = 78.9

[[record]]
smiles_string = "CCOC(=O)c1cc2c(n1Cc1cccc(OC)c1)-c1oncc1CCC2"
target_desc = "SU-DHL-10 (GCB DLBCL)"
unit_info = "%"
observed_value = 51.5


# context switch: different molecule, same activity at 1 µM
Endpoint output: activity at 1 µM of COc1ccc(Cn2ccc3c2-c2oncc2CCC3)cc1 . Value?
74.6

----------
Known GI50 of a selection of compounds
- Test system: human peripheral blood lymphocytes not stimulated with PHA
- assay_remarks: Cytotoxicity in resting PBLs (MTT)
- Assay type: cell-based
- experimental_parameters: Lymphocyte, 72 h, mean ± SEM, three experiments, read-out: GI50 PBLresting

[[record]]
compound = "CC[C@]1(O)C[C@H]2CN(CCc3c([nH]c4ccccc34)[C@@](C(=O)OC)(c3cc4c(cc3OC)N(C=O)[C@H]3[C@@](O)(C(=O)OC)[C@H](OC(C)=O)[C@]5(CC)C=CCN6CC[C@]43[C@@H]65)C2)C1 [vincristine, reference compound]"
attribute_measured = "GI50"
observed_value = "7.5 µM"

[[record]]
compound = "CCOC(=O)c1c(Cl)c2c(n1Cc1cc(OC)cc(OC)c1)-c1oncc1CCC2"
attribute_measured = "GI50"
observed_value = "> 100 µM"

[[record]]
compound = "CCOC(=O)c1cc2c(n1Cc1cc(OC)cc(OC)c1)-c1oncc1CCC2"
attribute_measured = "GI50"
observed_value = "> 100 µM"


Lab note: need GI50 with human peripheral blood lymphocytes not stimulated with PHA for entry CCOC(=O)c1cc2c(n1Cc1cccc(OC)c1)-c1oncc1CCC2 , please look it up.
> 100 µM

----------
- Tested on: BT-549
attribute_measured: GI50 (µM)
Form entry: value (µM) — number only.

Some solved entries appear below for comparison.
[[record]]
smiles_string = "CCOC(=O)c1cc2c(n1Cc1ccccc1OC)-c1oncc1CCC2"
observed_value = 7.73

[[record]]
smiles_string = "CCOC(=O)c1cc2c(n1Cc1cc(OC)c(OC)c(OC)c1)-c1oncc1CCC2"
observed_value = 0.29

[[record]]
smiles_string = "CCOC(=O)c1c(Cl)c2c(n1Cc1cc(OC)cc(OC)c1)-c1oncc1CCC2"
observed_value = 27


Lab note: need GI50 with BT-549 for entry CCOC(=O)c1cc2c(n1Cc1cccc(OC)c1)-c1oncc1CCC2 , please look it up.
0.98

Lab note: need GI50 with BT-549 for entry CCOC(=O)c1cc2c(n1Cc1cc(OC)cc(OC)c1)-c1oncc1CCC2 , please look it up.
1.72

----------
- Test system: NCI/ADR-RES
- assay_remarks: NCI-60 screen
- Type: cell-based
- experimental_parameters: Homo sapiens, Ovarian Cancer
Criterion: GI50 strictly less than 400 nM. Met: true (1). Not met: false (0).

Example cases with answers are listed next.
[[record]]
smiles_string = "CCOC(=O)c1cc2c(n1Cc1cccc(OC)c1)-c1oncc1CCC2"
target_desc = "NCI/ADR-RES"
category = "false (0)"

[[record]]
smiles_string = "CCOC(=O)c1cc2c(n1Cc1cc(OC)c(OC)c(OC)c1)-c1oncc1CCC2"
target_desc = "NCI/ADR-RES"
category = "true (1)"

[[record]]
smiles_string = "CCOC(=O)c1c(Cl)c2c(n1Cc1cc(OC)cc(OC)c1)-c1oncc1CCC2"
target_desc = "NCI/ADR-RES"
category = "true (1)"


Please indicate whether the reported GI50 of CCOC(=O)c1c(Cl)c2c(n1Cc1ccccc1)-c1oncc1CCC2 is strictly below 400 nM.
false (0)

Please indicate whether the reported GI50 of CCOC(=O)c1cc2c(n1Cc1ccccc1OC)-c1oncc1CCC2 is strictly below 400 nM.
false (0)

Please indicate whether the reported GI50 of CCOC(=O)c1cc2c(n1Cc1cc(OC)cc(OC)c1)-c1oncc1CCC2 is strictly below 400 nM.
true (1)

----------
Quick record: GI50, UO-31.
Form entry: value (nM) — number only.

Some solved entries appear below for comparison.
[[record]]
smiles_string = "CCOC(=O)c1cc2c(n1Cc1cccc(OC)c1)-c1oncc1CCC2"
target_desc = "UO-31"
observed_value = 3370

[[record]]
smiles_string = "CCOC(=O)c1c(Cl)c2c(n1Cc1cc(OC)cc(OC)c1)-c1oncc1CCC2"
target_desc = "UO-31"
observed_value = 780


Lab note: need GI50 with UO-31 for entry CCOC(=O)c1cc2c(n1Cc1cc(OC)c(OC)c(OC)c1)-c1oncc1CCC2 , please look it up.
80

Lab note: need GI50 with UO-31 for entry CCOC(=O)c1cc2c(n1Cc1cc(OC)cc(OC)c1)-c1oncc1CCC2 , please look it up.
50

Lab note: need GI50 with UO-31 for entry CCOC(=O)c1cc2c(n1Cc1ccccc1OC)-c1oncc1CCC2 , please look it up.
6530

----------
Quick record: GI50, UACC-62.
Form entry: value (nM) — number only.

[[record]]
compound = "CCOC(=O)c1cc2c(n1Cc1cccc(OC)c1)-c1oncc1CCC2 [Compound 63]"
unit_info = "nM"
observed_value = 510

[[record]]
compound = "CCOC(=O)c1c(Cl)c2c(n1Cc1cc(OC)cc(OC)c1)-c1oncc1CCC2 [Compound 75]"
unit_info = "nM"
observed_value = 110

[[record]]
compound = "CCOC(=O)c1cc2c(n1Cc1ccccc1OC)-c1oncc1CCC2 [Compound 62]"
unit_info = "nM"
observed_value = 3370

[[record]]
compound = "CCOC(=O)c1cc2c(n1Cc1cc(OC)cc(OC)c1)-c1oncc1CCC2 [Compound 66]"
unit_info = "nM"
observed_value = 70

[[record]]
compound = "CCOC(=O)c1c(Cl)c2c(n1Cc1ccccc1)-c1oncc1CCC2 [Compound 70]"
unit_info = "nM"
observed_value = 4010


# context switch: different compound, same GI50
Lab note: need GI50 with UACC-62 for entry CCOC(=O)c1cc2c(n1Cc1cc(OC)c(OC)c(OC)c1)-c1oncc1CCC2 [Compound 67] , please look it up.
50

----------
- System: CCRF-CEM
attribute_measured: GI50 (µM)
Form entry: value (µM) — number only.

Some solved entries appear below for comparison.
[[record]]
smiles_string = "CCOC(=O)c1c(Cl)c2c(n1Cc1ccccc1)-c1oncc1CCC2"
unit_info = "µM"
observed_value = 2.21

[[record]]
smiles_string = "CCOC(=O)c1cc2c(n1Cc1cc(OC)c(OC)c(OC)c1)-c1oncc1CCC2"
unit_info = "µM"
observed_value = 0.3

[[record]]
smiles_string = "CCOC(=O)c1cc2c(n1Cc1cc(OC)cc(OC)c1)-c1oncc1CCC2"
unit_info = "µM"
observed_value = 0.05

[[record]]
smiles_string = "CCOC(=O)c1cc2c(n1Cc1ccccc1OC)-c1oncc1CCC2"
unit_info = "µM"
observed_value = 2.87

[[record]]
smiles_string = "CCOC(=O)c1c(Cl)c2c(n1Cc1cc(OC)cc(OC)c1)-c1oncc1CCC2"
unit_info = "µM"
observed_value = 0.25


Lab note: need GI50 with CCRF-CEM for entry CCOC(=O)c1cc2c(n1Cc1cccc(OC)c1)-c1oncc1CCC2 , please look it up.
2.17

----------
Quick record: log10 of GI50, HT29.
// stored as log10 of GI50 expressed in nM

Some solved entries appear below for comparison.
[[record]]
molecule = "CCOC(=O)c1c(Cl)c2c(n1Cc1cc(OC)cc(OC)c1)-c1oncc1CCC2 [Compound 75]"
attribute_measured = "log10 of GI50"
observed_value = 2.43

[[record]]
molecule = "CCOC(=O)c1cc2c(n1Cc1cccc(OC)c1)-c1oncc1CCC2 [Compound 63]"
attribute_measured = "log10 of GI50"
observed_value = 2.56

[[record]]
molecule = "CCOC(=O)c1c(Cl)c2c(n1Cc1ccccc1)-c1oncc1CCC2 [Compound 70]"
attribute_measured = "log10 of GI50"
observed_value = 3.47

[[record]]
molecule = "CCOC(=O)c1cc2c(n1Cc1ccccc1OC)-c1oncc1CCC2 [Compound 62]"
attribute_measured = "log10 of GI50"
observed_value = 2.96

[[record]]
molecule = "CCOC(=O)c1cc2c(n1Cc1cc(OC)c(OC)c(OC)c1)-c1oncc1CCC2 [Compound 67]"
attribute_measured = "log10 of GI50"
observed_value = 1.85


# context switch: different molecule, same log10 of GI50
Lab note: need log10 of GI50 with HT29 for entry CCOC(=O)c1cc2c(n1Cc1cc(OC)cc(OC)c1)-c1oncc1CCC2 [Compound 66] , please look it up.
1.48
